Cited source: ChEMBL document CHEMBL4393730

Test: Cytotoxicity against mouse L929 cells assessed as cell growth inhibition at 50 ug/ml measured after 72 hrs by MTT method relative to control
Type: cell-based
Details: read-out: GI
Rule: inhibition at 72 h, 50 ug/ml under 30% gives N, otherwise Y.

INSERT INTO assay_data (chemical_smiles, qualitative_label) VALUES
  ('COc1ccc(Br)cc1/C=N/Nc1nc(-c2ccc(F)cc2)cs1', 'Y'),
  ('COc1ccc(Br)cc1/C=N/Nc1nc(-c2ccc(-c3ccccc3)cc2)cs1', 'N'),
  ('COc1ccc(Br)cc1/C=N/Nc1nc(-c2ccccc2)cs1', 'N'),
  ('COc1ccc(Br)cc1/C=N/Nc1nc(-c2ccc([N+](=O)[O-])cc2)cs1', 'Y'),
  ('COc1ccc(Br)cc1/C=N/Nc1nc(-c2ccc(Br)cc2)cs1', 'N');

* * *

Target: Quinolone resistance protein NorA (Staphylococcus aureus) (UniProt P0A0J7)
Sequence (whole entry): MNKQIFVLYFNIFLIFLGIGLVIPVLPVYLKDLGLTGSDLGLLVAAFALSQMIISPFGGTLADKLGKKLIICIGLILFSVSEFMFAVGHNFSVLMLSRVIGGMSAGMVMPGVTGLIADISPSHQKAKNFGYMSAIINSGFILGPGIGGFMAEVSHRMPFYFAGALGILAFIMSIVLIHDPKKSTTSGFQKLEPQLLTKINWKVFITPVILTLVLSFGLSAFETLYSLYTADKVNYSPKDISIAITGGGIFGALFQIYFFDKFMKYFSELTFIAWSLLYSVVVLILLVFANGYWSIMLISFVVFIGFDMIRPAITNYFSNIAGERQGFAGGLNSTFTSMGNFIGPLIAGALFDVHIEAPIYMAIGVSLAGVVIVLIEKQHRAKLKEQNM
Assay: Inhibition of NorA efflux pump in multidrug resistant Staphylococcus aureus 1199B mutant assessed as norfloxacin MIC measured after 24 hrs by broth microdilution method (reference value: 256 +/- 1 microg/ml)
Below, each entry is listed with its recorded log10(MIC).
VALUE_TYPE: log10(MIC) (log10 of the value in µg/mL)

INSERT INTO assay_data (chemical_smiles, meas_value) VALUES
  ('COc1ccc(Br)cc1/C=N/Nc1nc(-c2ccc(-c3ccccc3)cc2)cs1', 3.01),
  ('COc1ccc(Br)cc1/C=N/Nc1nc(-c2ccc([N+](=O)[O-])cc2)cs1', 2.11),
  ('COc1ccc(Br)cc1/C=N/Nc1nc(-c2ccc(F)cc2)cs1', 3.01),
  ('COc1ccc(Br)cc1/C=N/Nc1nc(-c2ccc(Cl)cc2)cs1', 1.61),
  ('COc1ccc(Br)cc1/C=N/Nc1nc(-c2ccccc2)cs1', 1.71),
  ('COc1ccc(Br)cc1/C=N/Nc1nc(-c2ccc(Br)cc2)cs1', 1.81);
